# System Tested: BTK (Homo sapiens (Human), UniProt Q06187)
# Sequence (Q06187 whole entry): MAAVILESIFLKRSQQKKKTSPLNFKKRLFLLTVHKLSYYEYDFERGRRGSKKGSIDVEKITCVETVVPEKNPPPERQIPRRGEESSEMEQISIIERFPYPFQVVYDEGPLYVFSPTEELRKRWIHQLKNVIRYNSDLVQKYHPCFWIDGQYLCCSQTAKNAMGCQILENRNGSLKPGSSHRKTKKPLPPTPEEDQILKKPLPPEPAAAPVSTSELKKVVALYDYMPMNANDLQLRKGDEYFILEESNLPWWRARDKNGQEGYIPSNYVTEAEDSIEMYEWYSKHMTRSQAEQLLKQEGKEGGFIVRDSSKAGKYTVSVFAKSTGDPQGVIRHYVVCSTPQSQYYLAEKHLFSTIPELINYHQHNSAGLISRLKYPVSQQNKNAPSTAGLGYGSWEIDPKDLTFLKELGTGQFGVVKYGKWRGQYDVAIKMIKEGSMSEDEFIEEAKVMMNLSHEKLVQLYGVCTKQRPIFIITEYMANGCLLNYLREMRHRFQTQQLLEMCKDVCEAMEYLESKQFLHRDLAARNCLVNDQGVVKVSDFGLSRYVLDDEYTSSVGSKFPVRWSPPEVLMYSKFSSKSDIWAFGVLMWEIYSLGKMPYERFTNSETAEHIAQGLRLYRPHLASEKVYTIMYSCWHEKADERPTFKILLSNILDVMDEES
# Protocol: Z'-LYTE kinase inhibition assay against BTK
# Assay type: biochemical
# Condition Notes: compound at 100 nM; ATP concentration at Km
Measurement Kind: inhibition at 0.1 µM

Example entries and their recorded answers appear below.
| Compound | Result Value |
| --- | --- |
| C=CC(=O)Nc1cccc(-c2cc(-c3cccc(F)c3)cc3cncnc23)c1 [C073] | > 50% |
| C=CC(=O)Nc1cccc(-c2cc(-c3ccc(C(=O)Nc4cc(C)ccn4)cc3)cc3cncnc23)c1 [C041] | > 50% |
| C=CC(=O)Nc1cccc(-c2cc(-c3ccc(C(=O)Nc4cc(C(F)(F)F)ccn4)cc3F)cc3cncnc23)c1 [C129] | > 50% |

inhibition at 0.1 µM in this record for C=CC(=O)Nc1cccc(-c2cc(-c3ccc(Oc4cc(C(N)=O)ccn4)cc3F)cc3cncnc23)c1 [C194] : > 50%

inhibition at 0.1 µM in this record for C=CC(=O)Nc1cccc(-c2cc(-c3ccc(C(=O)N4CCOCC4)cc3)cc3cncnc23)c1 [C101] : > 50%

inhibition at 0.1 µM in this record for C=CC(=O)Nc1cccc(-c2cc(-c3ccc(C(=O)Nc4ccccc4)nc3)cc3cnc(N)nc23)c1 [C059] : < 50%

inhibition at 0.1 µM in this record for C=CC(=O)N1CCC(c2cc(-c3ccc(C(=O)Nc4cc(C(F)(F)F)ccn4)c(F)c3)n3cnccc23)C1 (centres unmarked) [C152] : < 50%

inhibition at 0.1 µM in this record for C=CC(=O)N1CCC(c2nc(-c3ccc(Oc4ccccn4)cc3)n3c(N)nccc23)C1 (centres unmarked) [C186] : > 50%

Data credit: patent US10544106B2
